# Test system: MOLT-4 leukemia
# Assay notes: NCI tumour cell line growth inhibition, 48 h
Hi there, I'd appreciate the recorded TGI for every entry that follows.
Please respond with the number in µM and leave the unit unwritten.

Lab note: Oc1ccccc1-c1cnnc(-c2ccccc2O)c1 gave TGI of 66.5

Lab note: Cc1ccccc1N=C(c1ccccc1)C1C(=O)c2ccccc2C1=O gave TGI of 35.7

Lab note: CCn1c(C)nc([N+](=O)[O-])c1Sc1ncc[nH]1 gave TGI of 76.8

Lab note: O/N=C1/C(=C/c2ccc(Br)cc2)CCCC1C(NO)c1ccc(Br)cc1 (stereo not given) gave TGI of 31.7

Lab note: COc1cccc2c1CCc1sc(CN3CCN(C)CC3)nc1-2 gave TGI of 63.9

Lab note: CCN(Cc1c(F)cccc1C(F)(F)F)c1ccc(CO)c(Cl)c1 gave TGI of 37.1

Lab note: O=C(Nc1cccc(Cl)c1)Nc1cc(C(F)(F)F)ccc1Cl gave TGI of 11.4

Lab note: COc1ccc2cc(CNCCOCCOCCNCc3ccc4cc(OC)ccc4c3)ccc2c1 gave TGI of 2.44

Lab note: O=C(NNC(=O)/C(=C/c1cccc([N+](=O)[O-])c1)NC(=O)c1ccccc1)Nc1ccc(Cl)cc1 gave TGI of 25.2

Lab note: COc1cc(/C=C/[N+](=O)[O-])cc(OC)c1 gave TGI of 6.33

Lab note: O=c1oc2c(Cl)cc(Cl)cc2cc1-c1cn2c(n1)sc1ccccc12 gave TGI of 52

Lab note: CN(CCCNC(=O)c1[nH]nc2c1ccc1ccccc12)CCCNC(=O)c1[nH]nc2c1ccc1ccccc12 gave TGI of 26.2

Lab note: COc1cc(-c2cc(-c3ccc(Nc4nc(Nc5ccc(Cl)cc5)nc(Nc5ccc(Cl)cc5)n4)cc3)no2)cc(OC)c1OC gave TGI of 23.7

Lab note: C=C1C(O)C2OC(=O)C(=C)C2C(OC(=O)/C(C)=C/C)CC2(C)OC2C2OC12 (stereo not given) gave TGI of 31.2

Lab note: CCc1cc2c(cc1O)CC[C@@H]1[C@@H]2CC[C@]2(C)[C@@H](O)CC[C@@H]12 gave TGI of 20

Lab note: O=C(NC12CC3CC(CC(C3)C1)C2)n1cnc2c(Cl)ncnc21 gave TGI of 52.2

---

# System: A549 NSCLC
# Assay notes: NCI tumour cell line growth inhibition, 48 h
Hi there, I'd appreciate the recorded TGI for every entry that follows.

Lab note: Cc1cc(C2CC(O)C(CO)O2)c(Br)cc1Br (centres undefined) gave TGI of > 100 µM

Lab note: C#CCN(Cc1ccc2nc(-c3ccccc3)c(Cl)nc2c1)c1ccc(Cl)c(Cl)c1 gave TGI of > 100 µM

Lab note: CC(=O)Nc1ccc(S(=O)(=O)Nc2cnc3ccccc3n2)cc1 gave TGI of > 100 µM

Lab note: COc1cccc(/C=C/C(=O)c2cc3c(N)c(C(=O)Nc4ccccc4)sc3nc2C)c1 gave TGI of 6.23 µM

Lab note: CCOP(=O)(OCC)C(Cc1cn(S(=O)(=O)c2ccc(C)cc2)cn1)C(=O)O (centres undefined) gave TGI of > 100 µM

Lab note: O=C(Nc1ccc(-c2cn3ccccc3n2)cc1)c1cc(Br)ccc1O gave TGI of > 100 µM

Lab note: COC1C[C@H](O[C@@H]2C[C@H](O[C@@H]3C[C@H](O[C@@H]4C(=O)c5c(cc6cc(O[C@H]7C[C@@H](O[C@H]8C[C@@H](O)[C@H](O)C(C)O8)[C@H](O)C(C)O7)c(C)c(O)c6c5O)C[C@H]4C(OC)C(=O)[C@@H](O)[C@@H](C)O)OC(C)[C@H]3O)OC(C)[C@@H]2O)OC(C)[C@@H]1O (some centres undefined) gave TGI of > 32.5 µM

Lab note: CC(NC(=O)C(NC(=O)C(NC(=O)C(F)(F)F)C(C)C)C(C)C)C(=O)Oc1c(Cl)c(Cl)c(Cl)c(Cl)c1Cl (centres undefined) gave TGI of > 100 µM

Lab note: O=C(NNC(=O)/C(=C/c1cccc([N+](=O)[O-])c1)NC(=O)c1ccccc1)Nc1ccc(Cl)cc1 gave TGI of 31.4 µM

Lab note: COc1cc([C@@H]2c3cc4c(cc3[C@H](OC3OC5COC(C(C)C)OC5C(O)C3O)C3COC(=O)[C@@H]32)OCO4)cc(OC)c1OC (some centres undefined) gave TGI of > 100 µM

Lab note: Cc1nc2cc3[nH]c4ccccc4c(=O)c3cc2s1 gave TGI of > 100 µM

Lab note: Cc1cccc(N=Nc2ccc(O)c(CN(C)C)c2)c1 gave TGI of > 100 µM

Lab note: CCCCCCCCCCCCCC(=O)OCC1OC(=O)C(O)C1O (centres undefined) gave TGI of > 100 µM

Lab note: O=C(C#Cc1ccccc1)Nc1ccccc1CC(c1c[nH]c2ccccc12)c1c[nH]c2ccccc12 gave TGI of > 100 µM

Lab note: COC(=O)/C(=C1\OC(=O)C(c2ccc(Cl)cc2)=C1O)c1ccc(Cl)cc1 gave TGI of 84.3 µM

Lab note: Cc1c(-c2c(F)cc(C(N)=O)c3[nH]c4c(c23)CC[C@H](C(C)(C)O)C4)cccc1-n1c(=O)c2cccc(F)c2n(C)c1=O gave TGI of > 100 µM

Lab note: CCCCCCCC(=O)[O-].N.N.N.N.N.[Co+3].[O-][Cl+3]([O-])([O-])[O-] gave TGI of > 100 µM

Lab note: COc1ccc(N2CCN(c3nc(-c4ccccn4)nc4sc5c(c34)CCCCCC5)CC2)cc1 gave TGI of > 100 µM

Lab note: CC(C)C(N=C1CC2CCC1(C(=O)Nc1ccccc1O)C2(C)C)c1ccccc1 (centres undefined) gave TGI of > 10 µM

Lab note: c1ccc(C(OCCN2CC3CCC(C2)N3)c2ccccc2)cc1 gave TGI of > 100 µM

Lab note: O=C1C2=C(c3ccccc31)C(c1ccc([N+](=O)[O-])cc1)NC(=S)N2 (centres undefined) gave TGI of > 100 µM

Lab note: Clc1cc2ns[s+]c2cc1Cl gave TGI of > 100 µM

Lab note: Cc1ccnc2[nH]c(-c3ccc(Cl)cc3)cc(=O)c12 gave TGI of > 100 µM

Lab note: CCC(/C(=N/NC(=O)C[N+](C)(C)C)c1ccccc1)C1OC(=O)c2ccccc21 (centres undefined) gave TGI of > 100 µM

Lab note: COc1ccccc1-c1nc[nH]c1-c1ccccc1OC gave TGI of > 100 µM

Lab note: Cc1nc(-n2nc(-c3ccccc3)cc2-c2ccccc2)sc1C(/C=C\c1ccc([N+](=O)[O-])cc1)=N/NC(=S)NN gave TGI of > 100 µM

Lab note: CCn1c(C)nc([N+](=O)[O-])c1Sc1ncc[nH]1 gave TGI of > 100 µM

Lab note: O=C(COc1ccc(Cl)cc1Cl)NNc1ccc([N+](=O)[O-])cc1 gave TGI of > 100 µM

Lab note: C[C@]12CC[C@@H]3c4cc(C=O)c(OCc5ccccc5)cc4CC[C@H]3[C@@H]1CCC2OCc1ccccc1 (some centres undefined) gave TGI of > 100 µM

Lab note: COc1ccc2cc(CNCCOCCOCCNCc3ccc4cc(OC)ccc4c3)ccc2c1 gave TGI of 3.12 µM

Lab note: Nc1ccc(Oc2ccc(C34CC5CC(C3)CC(c3ccc(Oc6ccc(N)c(O)c6)cc3)(C5)C4)cc2)cc1O gave TGI of 3.24 µM

Lab note: COc1ccc(C2[C@@H](Cl)C(=O)N2c2ccc(OC)cc2)cc1 (some centres undefined) gave TGI of > 100 µM

Lab note: CCCCCCCN(CCCCCCC)C(=N)c1ccc(OC)c2ccccc12 gave TGI of 2.82 µM

Lab note: Nc1ccc2ncc(NCc3ccc(F)cc3)nc2c1 gave TGI of > 100 µM

Lab note: Cc1ccc(O)c(C(=O)/C=C/c2ccccc2)c1 gave TGI of > 100 µM

Lab note: COc1ccc2c(c1)C(=O)CC(C(N)=O)C2 (centres undefined) gave TGI of > 100 µM

Lab note: C=C1C(O)C2OC(=O)C(=C)C2C(OC(=O)/C(C)=C/C)CC2(C)OC2C2OC12 (centres undefined) gave TGI of > 100 µM

Lab note: COc1ccc(CC2OC3(CCCCC3)CC3CCCCN32)cc1 (centres undefined) gave TGI of > 100 µM

Lab note: Nc1ncnc2c1ncn2Cc1ccc(CCl)cc1 gave TGI of 35.1 µM

---

# Tested on: SNB-19 CNS
# Assay notes: NCI tumour cell line growth inhibition, 48 h
Hi there, I'd appreciate the recorded TGI for every entry that follows.

Lab note: Clc1cccc(C=NC23CC4CC(CC(C4)C2)C3)c1Cl gave TGI of > 10 µM

Lab note: CCOC(=O)C1=C(C)NC(c2ccccc2)=C(C(=O)OCc2ccccc2)C1C#Cc1ccccc1 (stereo unspecified) gave TGI of > 100 µM

Lab note: O=C1C(Nc2ccc(S(=O)(=O)Nc3cnc4ccccc4n3)cc2)=CC(=Nc2ccc(S(=O)(=O)Nc3cnc4ccccc4n3)cc2)c2ccccc21 gave TGI of 29 µM

Lab note: CCCCCCCCC/C=C1/CC(CO)(COC(=O)C2CCCCC2)OC1=O (stereo unspecified) gave TGI of > 100 µM

Lab note: Clc1cc2ns[s+]c2cc1Cl gave TGI of > 100 µM

Lab note: N/C(=N/O)NOCCC(N)C(=O)O (stereo unspecified) gave TGI of > 100 µM

Lab note: Nc1ncnc2c1ncn2Cc1ccc(CCl)cc1 gave TGI of 37.8 µM

Lab note: C=C1CC2(CC(c3ccccc3C)OC(c3ccccc3C)C2)OC1=O (stereo unspecified) gave TGI of 30.8 µM

Lab note: COc1cccc2c1CCc1sc(CN3CCN(C)CC3)nc1-2 gave TGI of > 100 µM

Lab note: CN(CCCNC(=O)c1[nH]nc2c1ccc1ccccc12)CCCNC(=O)c1[nH]nc2c1ccc1ccccc12 gave TGI of 37.6 µM

Lab note: O=C(C#Cc1ccccc1)N1CCCCC1 gave TGI of > 100 µM
